The measurements presented in this section are drawn from patent US20190359693A1.

- target-desc: hemagglutinin (HA) of influenza A/Hong Kong/1/68 (H3N2) (influenza A virus A/Hong Kong/1/68 (H3N2)) (UniProt Q91MA7)
- test: cell-based or functional assay
Listed binders paired with reported VNA IC50
Use nM as the unit, but write only the number.

[[record]]
binder = "SD3029 (VHH) VHH: EVQLVESGGGLVQPGGSLRLSCAVSISIFDIYAMDWYRQAPGKQRDLVATSFRDGSTNYADSVKGRFTISRDNAKNTLYLQMNSLKPEDTAVYLCHVSLYRDPLGVAGGLGVYWGKGALVTVSS"
measured_attribute = "VNA IC50"
unit_label = "nM"
recorded_result = 251


Inquiry: So what's the measured VNA IC50 for this one? SD3013 (VHH) VHH: EVQLVESGGGVVQPGGSLRLSCAASISIFDIYAMDWYRQAPGKQRELVATSFRDGSTYYADSVKGRFTISRDNSKNTLYLQMNSLRAEDTAVYLCHVSLYRDPLGVAGGMGVYWGKGALVTVSS
Reply text: 126
